- System: intracellular amastigotes of Leishmania (Leishmania) amazonensis
- Format: cell-based, Leishmania (L.) amazonensis (IFLA/BR/1967/PH8)
- Assay Context: Peritoneal macrophage, read-out: Intracellular amastigotes IC50 (µM)

# Compound, Target, Value Units, IC50
data = [
    ("O=c1cc(-c2ccc(O)c(-c3c(O)cc4oc(-c5ccc(O)cc5)cc(=O)c4c3O)c2)oc2cc(O)cc(O)c12", "intracellular amastigotes of Leishmania (Leishmania) amazonensis", "µM", 5.3),
    ("C[C@@H]1[C@H](O)[C@@H](C)/C=C/C=C/C=C/C=C/C=C/C=C/C=C/[C@H](O[C@@H]2O[C@H](C)[C@@H](O)[C@H](N)[C@@H]2O)C[C@@H]2O[C@](O)(C[C@@H](O)C[C@@H](O)[C@H](O)CC[C@@H](O)C[C@@H](O)CC(=O)O[C@H]1C)C[C@H](O)[C@H]2C(=O)O [Amphotericin B, reference compound]", "intracellular amastigotes of Leishmania (Leishmania) amazonensis", "µM", 0.035),
    ("O=c1cc(-c2ccc(O)c(-c3c(O)cc(O)c4c(=O)cc(-c5ccc(O)cc5)oc34)c2)oc2cc(O)cc(O)c12", "intracellular amastigotes of Leishmania (Leishmania) amazonensis", "µM", 0.2),
]
